Where do the numbers come from? From patent US11051515B2.

system: VERPE; test: Post-emergence action against VERPE; assay type: in vivo, Veronica persica; conditions: dosage 80 g/ha

Molecule: CCn1nnnc1NC(=O)c1ccc(C(F)F)c(C(C)=O)c1SC
Post-emergence action against VERPE: 80
//
Molecule: Cn1nnnc1NC(=O)c1ccc(C(F)(F)F)c(C(=O)C2CCCC2)c1Cl
Post-emergence action against VERPE: 80
//
Molecule: CCCC(=O)c1c(C(F)(F)F)ccc(C(=O)Nc2nnnn2CC)c1C
Post-emergence action against VERPE: 80
//
Molecule: CCCn1nnnc1NC(=O)c1ccc(C(F)(F)F)c(C(=O)CC)c1C
Post-emergence action against VERPE: 90
//
Molecule: CCCn1nnnc1NC(=O)c1ccc(C)c(C(C)=O)c1Cl
Post-emergence action against VERPE: 90
//
Molecule: CCCn1nnnc1NC(=O)c1ccc(C)c(C(=O)C2CC2)c1Cl
Post-emergence action against VERPE: 80
//
Molecule: CCn1nnnc1NC(=O)c1ccc(C(F)(F)F)c(C(=O)C2CC2C)c1Cl (stereo not shown)
Post-emergence action against VERPE: 90
//
Molecule: CCn1nnnc1NC(=O)c1ccc(C(F)(F)F)c(C(C)=O)c1SC
Post-emergence action against VERPE: 100
//
Molecule: CCn1nnnc1NC(=O)c1ccc(C(F)(F)F)c(C(=O)C2CC2)c1OC
Post-emergence action against VERPE: 90
//
Molecule: CCn1nnnc1NC(=O)c1ccc(S(C)(=O)=O)c(C(C)=O)c1Cl
Post-emergence action against VERPE: 100

###

Collected Pre-emergence action against AMARE (herbicidal activity) values appear next to each entry.
System: AMARE
Experiment: Pre-emergence action against AMARE
Format: in vivo, Amaranthus retroflexus
Conditions: pre-emergence, dosage 320 g/ha, scored visually after 3 weeks vs untreated controls
Excerpt: Seeds of monocotyledonous and dicotyledonous weed plants and crop plants are laid out in sandy loam soil in wood-fiber pots and covered with soil. […] The damage to the test plants is scored visually after a test period of 3 weeks by comparison with untreated controls (herbicidal activity in percent (%): 100% activity=the plants have died, 0% activity=like control plants).
Measured Metric: Pre-emergence action against AMARE (herbicidal activity)

Molecule: CCCn1nnnc1NC(=O)c1ccc(C(F)F)c(C(=O)C2CC2)c1Cl [3-168]
Result: 100%
//
Molecule: CCCn1nnnc1NC(=O)c1ccc(C(F)(F)F)c(C(C)=O)c1SC [3-58]
Result: 100%
//
Molecule: CCn1nnnc1NC(=O)c1ccc(S(C)(=O)=O)c(C(C)=O)c1Cl [2-127]
Result: 100%
//
Molecule: Cn1nnnc1NC(=O)c1ccc(Cl)c(C(=O)C2CCCC2)c1Cl [1-281]
Result: 90%
//
Molecule: CCCn1nnnc1NC(=O)c1ccc(C(F)F)c(C(C)=O)c1Cl [3-164]
Result: 100%
//
Molecule: CCC(=O)c1c(Cl)ccc(C(=O)Nc2nnnn2CC)c1Cl [2-115]
Result: 100%
//
Molecule: CCCn1nnnc1NC(=O)c1ccc(C)c(C(C)=O)c1C [3-1]
Result: 100%
//
Molecule: Cn1nnnc1NC(=O)c1ccc(C(F)(F)F)c(C(=O)c2cc(F)cc(F)c2)c1Cl [1-287]
Result: 100%
//
Molecule: CCCn1nnnc1NC(=O)c1ccc(C(F)(F)F)c(C(=O)C2CCCCC2)c1SC [3-281]
Result: 80%
//
Molecule: CCCn1nnnc1NC(=O)c1ccc(S(C)(=O)=O)c(C(=O)C2CC2)c1C [3-9]
Result: 100%
